Biological target: human GABAA α2β2γ1 receptor (Homo sapiens (Human), UniProt P47869+Q8N1C3)
Test: Radioligand binding assay, competition for [3H]RO7239181, γ1-containing GABAA subtypes
Settings: Ki h-GABAA α2β2γ1, Table 1; [3H]RO7239181 displacement, membranes from HEK293F cells, mean of two determinations
The following molecules are listed with their measured Ki values.
The response must be a number in nM with no trailing unit.

Past entries and their recorded results:
Can you look up Ki on human GABAA α2β2γ1 receptor (Homo sapiens (Human), UniProt P47869+Q8N1C3) for `C[C@@H]1N=C(c2c(F)cccc2F)c2c(cnc(C(F)(F)F)c2Cl)-n2c1nc1c2CCC1` ?
11.8

Also need `C[C@@H]1N=C(c2c(F)cccc2F)c2c(cnc(C(F)(F)F)c2Cl)-n2nc(NC(=O)C3COC3)nc21` , thanks.
69.2

Also need `C[C@@H]1N=C(c2c(F)cccc2F)c2c(cnc(C(F)(F)F)c2Cl)-n2nc(C(=O)N3CC(O)C3)nc21` , thanks.
14.6

Also need `Cc1nnc2n1-c1cnc(Cl)c(Cl)c1C(c1c(F)cccc1F)=N[C@H]2C` , thanks.
31.7

Also need `C[C@@H]1N=C(c2c(F)cccc2F)c2c(cnc(C(F)(F)F)c2Cl)-n2nc(C(=O)N[C@H]3C[C@H](O)C3)nc21` , thanks.
72.6

// next entry
Can you look up Ki on human GABAA α2β2γ1 receptor (Homo sapiens (Human), UniProt P47869+Q8N1C3) for `C[C@@H]1N=C(c2c(F)cccc2F)c2c(cnc(C(F)(F)F)c2Cl)-n2nc(N3CCCC3=O)nc21` ?
32

All values here come from patent US20240270744A1.
